pIC50 values, listed per item
# Target or system: Human immunodeficiency virus type 1 reverse transcriptase (Human immunodeficiency virus 1, UniProt Q72547)
pIC50: −log10 of the molar value.

Solved cases (2 shown):
[
  {
    "Molecule": "CCOC(=O)c1c(OC2CCCC2)cc(Cc2ccccc2)[nH]c1=O",
    "Reported metric": "pIC50",
    "Experimental result": "< 4.00"
  },
  {
    "Molecule": "CCOC(=O)c1c(OC2CCCCCC2)cc(Cc2ccccc2)[nH]c1=O",
    "Reported metric": "pIC50",
    "Experimental result": "< 4.00"
  }
]

Now take the following molecule into account.
**Q:** What value of pIC50 has been reported for the following molecule? CCOC(=O)c1c(OC2CCCCC2C)cc(CCc2ccccc2)[nH]c1=O (mixture of isomers)
**A:** < 4.00
